Examples of compounds with documented IC50 follow.
- experimental_target: IKKε (Homo sapiens (Human), UniProt Q14164)
- Sequence (Q14164 whole entry): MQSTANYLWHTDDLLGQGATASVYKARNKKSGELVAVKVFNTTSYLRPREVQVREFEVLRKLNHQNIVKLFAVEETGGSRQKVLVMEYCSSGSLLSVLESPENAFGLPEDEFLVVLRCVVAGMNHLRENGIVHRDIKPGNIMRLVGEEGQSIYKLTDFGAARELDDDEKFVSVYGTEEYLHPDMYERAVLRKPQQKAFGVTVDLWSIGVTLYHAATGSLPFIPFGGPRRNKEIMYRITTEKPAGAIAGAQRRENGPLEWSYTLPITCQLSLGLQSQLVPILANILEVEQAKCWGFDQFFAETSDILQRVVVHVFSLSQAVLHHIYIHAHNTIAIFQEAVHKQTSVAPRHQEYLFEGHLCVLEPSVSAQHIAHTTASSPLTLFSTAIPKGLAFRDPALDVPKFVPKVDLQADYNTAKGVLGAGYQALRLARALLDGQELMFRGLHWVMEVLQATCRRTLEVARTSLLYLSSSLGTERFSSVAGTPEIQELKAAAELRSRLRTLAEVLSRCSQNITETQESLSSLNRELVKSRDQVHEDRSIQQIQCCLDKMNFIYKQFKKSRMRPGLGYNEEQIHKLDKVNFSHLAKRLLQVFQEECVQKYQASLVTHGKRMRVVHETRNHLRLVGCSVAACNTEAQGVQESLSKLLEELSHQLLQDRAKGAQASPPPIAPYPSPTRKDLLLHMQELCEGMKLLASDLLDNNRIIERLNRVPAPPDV
- assay_explanation: TR-FRET kinase assay, IKKε
- condition_details: full length recombinant IKKε 0.3 nM, 2x Km ATP, 1 μM peptide, 240 min at 25° C.; geometric mean of minimum four determinations
Express your answer in nM, writing the number without its unit.

Take a look at these entries with their results.
O=C1NCc2cc(-c3cc4c(-c5ccc6c(c5)CNC6=O)ncnc4[nH]3)ccc21 1000
CC(=O)Nc1ccc(-c2cc3c(-c4ccc(OC5CCOCC5)c(C#N)c4)ccnc3[nH]2)cn1 7.91

Shift focus to the following entry.
Request: State IC50 (IKKε (Homo sapiens (Human), UniProt Q14164)) of N#Cc1cc(-c2ncnc3[nH]c(C4=CCC5(CC4)OCCO5)cc23)ccc1OC1CCN(C(=O)CO)CC1 .
Response: 5.84

---

- experimental_target: TBK1 (Homo sapiens (Human), UniProt Q9UHD2)
- Sequence (Q9UHD2 whole entry): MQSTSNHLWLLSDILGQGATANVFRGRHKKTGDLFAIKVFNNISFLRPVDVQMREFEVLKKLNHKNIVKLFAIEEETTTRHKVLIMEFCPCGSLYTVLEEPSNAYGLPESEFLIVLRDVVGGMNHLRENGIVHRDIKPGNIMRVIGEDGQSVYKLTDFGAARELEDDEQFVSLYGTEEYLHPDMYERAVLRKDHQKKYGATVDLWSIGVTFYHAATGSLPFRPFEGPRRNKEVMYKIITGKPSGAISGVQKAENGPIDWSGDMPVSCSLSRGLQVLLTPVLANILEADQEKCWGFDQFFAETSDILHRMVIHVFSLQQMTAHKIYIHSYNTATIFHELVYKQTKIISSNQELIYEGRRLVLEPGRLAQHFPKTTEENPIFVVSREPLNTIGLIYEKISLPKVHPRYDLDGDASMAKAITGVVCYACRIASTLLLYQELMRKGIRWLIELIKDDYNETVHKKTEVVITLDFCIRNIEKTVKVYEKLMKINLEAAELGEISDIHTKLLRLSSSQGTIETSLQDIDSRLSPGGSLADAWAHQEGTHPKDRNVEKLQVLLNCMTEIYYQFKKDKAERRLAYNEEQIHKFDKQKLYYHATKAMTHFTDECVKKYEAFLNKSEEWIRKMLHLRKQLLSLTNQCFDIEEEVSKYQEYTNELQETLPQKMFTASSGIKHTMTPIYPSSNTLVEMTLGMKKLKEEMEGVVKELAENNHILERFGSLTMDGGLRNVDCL
- assay_explanation: TR-FRET kinase assay, TBK1
- condition_details: read-out: TBK1-IC50; full length recombinant TBK1 2.5 nM, 2x Km ATP, 1 μM peptide, 240 min at 25° C.; geometric mean of minimum four determinations
quantity_kind: IC50 (nM)
Express your answer in nM, writing the number without its unit.

N#Cc1cc(-c2c(F)cnc3[nH]c(-c4ccc(OCCN5CCCC5)cc4)cc23)ccc1OC1CCOCC1 6.35

Request: Check the records and state IC50 for N#Cc1cc(-c2cc3c(-c4ccc(OC5CCOCC5)c(C#N)c4)ccnc3[nH]2)ccc1OC1CCOCC1
Response: 24.1

Request: Check the records and state IC50 for N#Cc1cc(-c2ncnc3[nH]c(-c4cccc(C(N)=O)c4)cc23)ccc1OC1CCOCC1
Response: 6.4

Request: Check the records and state IC50 for N#Cc1cc(-c2ccnc3[nH]c(-c4ccc(N5CCOCC5)cc4)cc23)ccc1O[C@@H]1CCNC1
Response: 6.86

Request: Check the records and state IC50 for CC(C)(C)OC(=O)N1CCC(Oc2ccc(-c3ncnc4[nH]c(-c5ccc(N6CCOCC6)c(F)c5)nc34)cc2C#N)CC1
Response: 1000

Request: Check the records and state IC50 for CS(=O)(=O)c1ccc(-c2ccnc3[nH]c(-c4ccc(N5CCOCC5)cc4)cc23)cc1C#N
Response: 275

Request: Check the records and state IC50 for COc1ccc(-c2ccnc3[nH]c(-c4ccc(N5CCOCC5)cc4)cc23)cc1C#N
Response: 89.8

---

- experimental_target: IKKε (Homo sapiens (Human))
- assay_explanation: TR-FRET kinase assay, IKKε
- condition_details: full length recombinant IKKε 0.3 nM, 2x Km ATP, 1 μM peptide, 240 min at 25° C.; geometric mean of minimum four determinations
quantity_kind: IC50 (µM)
Express your answer in µM, writing the number without its unit.

Take a look at these entries with their results.
N#Cc1cc(-c2ccnc3[nH]c(-c4ccc(N5CCOCC5)cc4)nc23)ccc1OC1CCNCC1 0.109
N#Cc1cc(-c2ccnc3[nH]c(-c4ccc(N5CCOCC5)cc4)cc23)ccc1O[C@@H]1CCN(C2COC2)C1 0.063
N#Cc1cc(-c2ncnc3[nH]c(-c4ccc(N5CCNCC5)cc4)cc23)ccc1OC1CCOCC1 0.00103
N#CCC(=O)N1CC[C@@H](Oc2ccc(-c3ccnc4[nH]c(-c5ccc(N6CCOCC6)cc5)nc34)cc2C#N)C1 0.00751
N#Cc1cc(-c2ccnc3[nH]c(-c4cnn(C5CCOCC5)c4)cc23)ccc1OC1CCOCC1 0.00298
N#Cc1cc(-c2c(F)cnc3[nH]c(-c4ccc(N5CCOCC5)cc4)cc23)ccc1OC1CCOCC1 0.0175

Request: State IC50 (IKKε (Homo sapiens (Human))) of COc1cc(-c2cc3c(-c4ccc(OC5CCOCC5)c(C#N)c4)ncnc3[nH]2)ccc1N1CCN(S(C)(=O)=O)CC1 .
Response: 0.00737

Request: State IC50 (IKKε (Homo sapiens (Human))) of CN1CCN(C(=O)c2cc3c(-c4ccc(OC5CCOCC5)c(C#N)c4)ccnc3[nH]2)CC1 .
Response: 0.291

Request: State IC50 (IKKε (Homo sapiens (Human))) of N#Cc1cc(-c2ncnc3[nH]c(-c4ccc(C5CCN(CC(F)F)CC5)cc4)nc23)ccc1OC1CCNCC1 .
Response: 0.0844

---

- experimental_target: TBK1 (Homo sapiens (Human), UniProt Q9UHD2)
- assay_explanation: TR-FRET kinase assay, TBK1
- condition_details: read-out: TBK1-IC50; full length recombinant TBK1 2.5 nM, 2x Km ATP, 1 μM peptide, 240 min at 25° C.; geometric mean of minimum four determinations
quantity_kind: IC50

Take a look at these entries with their results.
compound	IC50
COc1cc(-c2cc3c(-c4ccc(OC5CCOCC5)c(C#N)c4)ncnc3[nH]2)ccc1N1CCN(C2COC2)CC1 [Example 143]	1.02 nM
N#Cc1cc(-c2ncnc3[nH]c(-c4ccc(N5CCOCC5)c(F)c4)nc23)ccc1OC1CCNCC1 [Example 244]	35.8 nM

Request: Check the records and state IC50 for N#Cc1cc(-c2ccnc3[nH]c(C4=CCC5(CC4)OCCO5)cc23)ccc1OC1CCOCC1 [Example 180]
Response: 3.1 nM

Request: Check the records and state IC50 for CC(C)(C)n1cc(-c2cc3c(-c4ccc(OC5CCOCC5)c(C#N)c4)ccnc3[nH]2)cn1 [Example 53]
Response: 9.4 nM

Request: Check the records and state IC50 for N#Cc1cc(-c2cc3c(-c4ccc(OC5CCOCC5)c(C#N)c4)ncnc3[nH]2)ccc1OC1CCOCC1 [Example 223]
Response: 2.84 nM

Request: Check the records and state IC50 for COc1ccc(-c2cc3c(-c4ccc(OC5CCN(C(=O)CO)CC5)c(C#N)c4)ncnc3[nH]2)cc1 [Example 126]
Response: 1.34 nM

---

- experimental_target: IKKε (Homo sapiens (Human), UniProt Q14164)
- assay_explanation: TR-FRET kinase assay, IKKε
- condition_details: full length recombinant IKKε 0.3 nM, 2x Km ATP, 1 μM peptide, 240 min at 25° C.; geometric mean of minimum four determinations
quantity_kind: pIC50
Note on pIC50: it is the negative log10 of concentration, concentration in mol/L.

compound	experimental_target	pIC50
COc1cc(-c2cc3c(-c4ccc(O[C@H]5CCNC[C@H]5F)c(C#N)c4)ncnc3[nH]2)ccc1N1CCN(C2COC2)CC1 [Example 144]	IKKε (Homo sapiens (Human), UniProt Q14164)	7.19
N#Cc1cc(-c2ncnc3[nH]c(-c4ccc(N5CCOCC5)cc4)nc23)ccc1OC1CCOCC1 [Example 201]	IKKε (Homo sapiens (Human), UniProt Q14164)	7.70
COc1cc(-c2cc3c(-c4ccc(O[C@H]5CCN(C(=O)CO)C[C@H]5F)c(C#N)c4)ncnc3[nH]2)ccc1N1CCN(C2COC2)CC1 [Example 145]	IKKε (Homo sapiens (Human), UniProt Q14164)	9.32
N#Cc1cc(-c2ncnc3[nH]c(-c4ccc(N5CCOCC5)cc4)cc23)ccc1N1CC(O)C1 [Example 199]	IKKε (Homo sapiens (Human), UniProt Q14164)	6.00
N#Cc1cc(-c2ccnc3[nH]c(-c4ccc(-n5cccn5)cc4)cc23)ccc1OC1CCOCC1 [Example 177]	IKKε (Homo sapiens (Human), UniProt Q14164)	6.00

Shift focus to the following entry.
Request: Check the records and state pIC50 for COc1ccc(-c2cc3c(-c4ccc(OC5CCN(C(=O)CO)CC5)c(C#N)c4)ncnc3[nH]2)c(C)c1 [Example 131]
Response: 7.91

---

- experimental_target: TBK1 (Homo sapiens (Human), UniProt Q9UHD2)
- assay_explanation: TR-FRET kinase assay, TBK1
- condition_details: read-out: TBK1-IC50; full length recombinant TBK1 2.5 nM, 2x Km ATP, 1 μM peptide, 240 min at 25° C.; geometric mean of minimum four determinations
Examples of compounds with documented pIC50 follow.
Note on pIC50: it is the negative log10 of concentration, concentration in mol/L.

compound	experimental_target	experimental_value
CC(C)(C)OC(=O)N1CCC(Oc2ccc(-c3ccnc4[nH]c(-c5ccc(N6CCOCC6)cc5)cc34)cc2C#N)CC1	TBK1 (Homo sapiens (Human), UniProt Q9UHD2)	6.16

Request: State pIC50 (TBK1 (Homo sapiens (Human), UniProt Q9UHD2)) of COc1cc(-c2cc3c(-c4ccc(OC5CCOCC5)c(C#N)c4)ncnc3[nH]2)ccc1N1CCN(C(=O)CO)CC1 .
Response: 8.96

Request: State pIC50 (TBK1 (Homo sapiens (Human), UniProt Q9UHD2)) of N#Cc1cc(-c2ccnc3[nH]c(C4=CCN(C(=O)CO)C4)cc23)ccc1OC1CCOCC1 .
Response: 7.83

Request: State pIC50 (TBK1 (Homo sapiens (Human), UniProt Q9UHD2)) of N#Cc1cc(-c2ccnc3[nH]c(-c4cnn(C5CCOCC5)c4)cc23)ccc1OC1CCOCC1 .
Response: 8.45

Request: State pIC50 (TBK1 (Homo sapiens (Human), UniProt Q9UHD2)) of N#Cc1cc(-c2ncnc3[nH]c(-c4ccc(C5CCN(CC(F)(F)F)CC5)cc4)nc23)ccc1OC1CCNCC1 .
Response: 7.43

Request: State pIC50 (TBK1 (Homo sapiens (Human), UniProt Q9UHD2)) of N#Cc1cc(-c2ccnc3[nH]c(C(=O)NC4CC4)cc23)ccc1OC1CCOCC1 .
Response: 7.10

Request: State pIC50 (TBK1 (Homo sapiens (Human), UniProt Q9UHD2)) of N#Cc1nc(-c2ccnc3[nH]c(-c4ccc(N5CCOCC5)cc4)nc23)ccc1OC1CCOCC1 .
Response: 8.03

Request: State pIC50 (TBK1 (Homo sapiens (Human), UniProt Q9UHD2)) of CC(=O)N1CCC(Oc2ccc(-c3ncnc4[nH]c(-c5ccc(N6CCOCC6)cc5)nc34)cc2C#N)CC1 .
Response: 8.22

Request: State pIC50 (TBK1 (Homo sapiens (Human), UniProt Q9UHD2)) of N#Cc1cc(-c2ccnc3[nH]c(-c4ccc(N5CCOCC5)c(F)c4)cc23)ccc1OC1CCOCC1 .
Response: 7.96

Request: State pIC50 (TBK1 (Homo sapiens (Human), UniProt Q9UHD2)) of N#Cc1cc(-c2ccnc3[nH]c(C(=O)Nc4ccccc4)cc23)ccc1OC1CCOCC1 .
Response: 6.51

Request: State pIC50 (TBK1 (Homo sapiens (Human), UniProt Q9UHD2)) of N#Cc1cc(-c2ncnc3[nH]c(-c4ccc(CN5CCOCC5)cc4)nc23)ccc1OC1CCN(C(=O)C(F)F)CC1 .
Response: 8.05

Request: State pIC50 (TBK1 (Homo sapiens (Human), UniProt Q9UHD2)) of N#Cc1cc(-c2ccnc3[nH]c(-c4ccc(N5CCOCC5)cc4)nc23)ccc1OCC1CC1 .
Response: 7.36

Request: State pIC50 (TBK1 (Homo sapiens (Human), UniProt Q9UHD2)) of CC(C)(C)OC(=O)N1CC[C@@H](Oc2ccc(-c3ccnc4[nH]c(-c5ccc(N6CCOCC6)cc5)cc34)cc2C#N)C1 .
Response: 6.84

Request: State pIC50 (TBK1 (Homo sapiens (Human), UniProt Q9UHD2)) of N#Cc1cc(-c2ccnc3[nH]c(C4=CCNC4)cc23)ccc1OC1CCOCC1 .
Response: 7.87

Request: State pIC50 (TBK1 (Homo sapiens (Human), UniProt Q9UHD2)) of N#Cc1cc(-c2ccnc3[nH]c(-c4ccc(N5CCOCC5)cc4)cc23)ccc1OC1CCN(C(=O)CO)CC1 .
Response: 8.72

Request: State pIC50 (TBK1 (Homo sapiens (Human), UniProt Q9UHD2)) of N#Cc1cc(-c2ccnc3[nH]c(C4=CCNCC4)cc23)ccc1OC1CCOCC1 .
Response: 7.53

Request: State pIC50 (TBK1 (Homo sapiens (Human), UniProt Q9UHD2)) of CN1CCN(c2ccc(-c3nc4c(-c5ccc(OC6CCNCC6)c(C#N)c5)ncnc4[nH]3)cc2)CC1 .
Response: 7.95

Request: State pIC50 (TBK1 (Homo sapiens (Human), UniProt Q9UHD2)) of COc1cc(-c2cc3c(-c4ccc(OC5CCN(C(=O)CO)CC5(F)F)c(C#N)c4)ncnc3[nH]2)ccc1N1CCN(C2COC2)CC1 (stereo not drawn) .
Response: 9.12

Request: State pIC50 (TBK1 (Homo sapiens (Human), UniProt Q9UHD2)) of N#Cc1cc(-c2ncnc3[nH]c(-c4ccc(N5CCOCC5)cc4)cc23)ccc1OC1CC2(COC2)C1 .
Response: 7.25

Request: State pIC50 (TBK1 (Homo sapiens (Human), UniProt Q9UHD2)) of COc1cc(-c2cc3c(-c4ccc(OC5CCNCC5(F)F)c(C#N)c4)ncnc3[nH]2)ccc1N1CCN(C2COC2)CC1 (stereo not drawn) .
Response: 8.45

Request: State pIC50 (TBK1 (Homo sapiens (Human), UniProt Q9UHD2)) of Cn1cc(-c2cc3c(-c4ccc(OC5CCOCC5)c(C#N)c4)ncnc3[nH]2)cn1 .
Response: 8.42

Request: State pIC50 (TBK1 (Homo sapiens (Human), UniProt Q9UHD2)) of N#Cc1cc(-c2ncnc3[nH]c(-c4ccc(C(=O)N5CCOCC5)cc4)cc23)ccc1OC1CCOCC1 .
Response: 8.79

Request: State pIC50 (TBK1 (Homo sapiens (Human), UniProt Q9UHD2)) of N#Cc1cc(-c2ncnc3[nH]c(-c4ccc(N5CCOCC5)c(F)c4)cc23)ccc1OC1CCOCC1 .
Response: 8.56
